- tested.on: IL-6 (mature human interleukin-6) (Homo sapiens) (UniProt P05231)
- assay.overview: cell_activity
- condition.notes: Bn-dU at 7,8,14,15,22,23,27,30; PE-dU at 9; Nap-dU at 12; 2'-OMe at C3,G6,A16,A19,C20,C28; STAT3 gene reporter assay
value.type: IC50
Note: state the figure and append the unit.

Form field IC50, entry GGCAGGUUUGGUAUUAACACGUUAAGUCGUGG [2573-20_136] : 0.5 nM

====

- tested.on: IL-6 (mature human interleukin-6) (Homo sapiens) (UniProt P05231)
- assay.overview: filter
- condition.notes: all U are Nap-dU (5-naphthylmethylcarboxamide-dU); SB17T-0.002 (125 mM NaCl, 5 mM KCl, 5 mM MgCl2), 37 C, ZORBAX capture
value.type: Kd (nM)
Just the number in nM, nothing appended.

Form field Kd, entry GATGTGAGTGTGTGACGAGGGGGUUAUGUAGCGAGUGCGUAAGGCGGUGGGCGAGGGAUCACAGAGAAGAAACAAGACC [2574-49] : 2

====

- tested.on: IL-6 (mature human interleukin-6) (Homo sapiens)
- assay.overview: filter
- condition.notes: all U are Bn-dU
Label T when Kd is strictly below 2 nM; otherwise label F.

Input: Criterion: Kd strictly below 2 nM. Is it met by GGCAGGUUUGGUAUUAACACGUUAAGUCGUGGGG [2573-20_13] ?
Output: T

Input: Criterion: Kd strictly below 2 nM. Is it met by GGCAGGUUUGGUAUUAACACGUUAAGUCGUGGG [2573-20_14] ?
Output: F

Input: Criterion: Kd strictly below 2 nM. Is it met by GGCAGGUUUGGUAUUAACACGUUAAGUCGUGG [2573-20_15] ?
Output: T

Input: Criterion: Kd strictly below 2 nM. Is it met by GGCAGGUUUGGUAUUAACACGUUAAGUCGUGGGGU [2573-20_12] ?
Output: T

Input: Criterion: Kd strictly below 2 nM. Is it met by GGCAGGUUUGGUAUUAACACGUUAAGUCGUGGGGUC [2573-20_3] ?
Output: T

====

- tested.on: IL-6 (Macaca fascicularis)
- Sequence: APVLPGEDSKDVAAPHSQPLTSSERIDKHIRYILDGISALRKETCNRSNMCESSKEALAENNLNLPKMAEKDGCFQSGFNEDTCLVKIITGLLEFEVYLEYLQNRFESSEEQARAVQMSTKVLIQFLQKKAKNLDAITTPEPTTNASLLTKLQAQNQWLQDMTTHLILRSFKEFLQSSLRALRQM
- assay.overview: cell_activity
- condition.notes: Bn-dU at 7,8,14,15,22,23,27,30; PE-dU at 9; Nap-dU at 12; 2'-OMe at C3,G6,A16,A19,C20,C28; gene reporter assay
value.type: pIC50
Quick note: pIC50 means taking -log10 of the concentration in moles per liter.

Readout pIC50 for GGCAGGUUUGGUAUUAACACGUUAAGUCGUGG [2573-20_136] , test system IL-6 (Macaca fascicularis), was 8.01

====

- tested.on: IL-6 (Macaca fascicularis)
- Sequence: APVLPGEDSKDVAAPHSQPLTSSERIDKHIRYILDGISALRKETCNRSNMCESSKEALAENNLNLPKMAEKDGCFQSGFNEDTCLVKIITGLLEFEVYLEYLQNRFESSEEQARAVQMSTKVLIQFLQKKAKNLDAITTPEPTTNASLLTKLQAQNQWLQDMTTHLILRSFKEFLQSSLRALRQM
- assay.overview: filter
- condition.notes: Bn-dU at 7,8,14,15,22,23,27,30; PE-dU at 9; Nap-dU at 12; 2'-OMe at C3,G6,A16,A19,C20,C28
value.type: Kd
Note: state the figure and append the unit.

Form field Kd, entry GGCAGGUUUGGUAUUAACACGUUAAGUCGUGG [2573-20_136] : 2 nM
